// cross-source set; read-out = IC50; system = Receptor-interacting serine/threonine-protein kinase 1 (Homo sapiens, UniProt Q13546)

Before answering, review these 6 worked examples.
| compound | data value |
| --- | --- |
| O=C1NCC[C@@H]1c1nc(N2CCC(C(=O)N3N=CC[C@H]3c3cncc(F)c3)CC2)ncc1F | 1 to 31.6 nM |
| Cc1ncc(C(=O)NC(C)c2ccccc2OC(F)(F)F)cc1-c1ccc2nc(N)sc2c1 (stereo not shown) | 64 nM |
| O=C(NCc1cc(C(F)(F)F)cc(C(F)(F)F)c1)c1c[nH]c2ccc(-c3ccc4nc(NC(=O)C5CC5)sc4c3)cc12 | 100 to 1000 nM |
| Nc1nc2ccc(-c3cnc4c(c3)C(=O)N(Cc3cc(C(F)(F)F)ccc3F)CC4)cc2s1 | 43 nM |
| COc1cc2nccc(Oc3ccc(NC(=O)c4cc(S(C)(=O)=O)n(-c5ccc(F)cc5)n4)c(F)c3)c2cc1OC | ≥ 10000 nM |
| CC(C)CNc1nc2cc(-c3ccc4c(c3)c(C(=O)N[C@@H](C)c3cccc(F)c3)cn4C)ccn2n1 | 1 to 10 nM |

Attention now shifts to the item below.
Prompt: State IC50 (Receptor-interacting serine/threonine-protein kinase 1 (Homo sapiens, UniProt Q13546)) of O=C(C1CCN(c2ncc3[nH]cnc3n2)CC1)N1N=CC[C@H]1c1cc(F)cc(F)c1 .
Response: 1 to 31.6 nM

* * *

// cross-source set; read-out = IC50; system = Receptor-interacting serine/threonine-protein kinase 1 (Homo sapiens, UniProt Q13546)
For each record, check the reported IC50: if it is below 40 nM write Yes, else write No.

| compound | class label |
| --- | --- |
| Cc1cc(=O)c(C(=O)Nc2cccc(Cl)c2F)nn1Cc1ccccc1 | No |
| COc1cc(CN2CCN(C(=O)c3cn(C)c4ccc(-c5ccc6nc(NC(=O)C7CC7)sc6c5)cc34)CC2)cc(OC)c1OC | No |
| Cc1cc(=O)c(C(=O)Nc2ccccn2)nn1-c1ccccc1Cl | No |
| Cc1cc(=O)c(C(=O)Nc2cccc(Cl)c2F)nn1-c1ccccc1F | No |
| Cc1cc(NC(=O)c2nn(-c3ccccc3)c(C)cc2=O)ncn1 | No |
| Cc1ncnc(C)c1NC(=O)c1nn(-c2ccccc2)c(C)cc1=O | No |
| Cc1c(Cl)c(=O)c(C(=O)NC2CCc3cc(Cl)ccc3NC2=O)nn1-c1ccccc1 (stereo not drawn) | Yes |
| Cc1cc(=O)c(C(=O)NC2CC2)nn1-c1ccccc1 | No |
| Cc1cccc(C)c1NC(=O)c1nn(-c2ccccc2)c(C)cc1=O | No |
| O=C(NC1CCc2ccccc2NC1=O)c1nn(-c2ccccc2)c2ccccc2c1=O (stereo not drawn) | Yes |

Prompt: Here's an entry: Cc1c(Cl)c(=O)c(C(=O)NC2CCc3ccccc3NC2=O)nn1-c1ccccc1 (stereo not drawn) . Is its IC50 below 40 nM?
Response: Yes

Prompt: Here's an entry: Cc1cc(=O)c(C(=O)NC(C)(C)C)nn1-c1ccccc1 . Is its IC50 below 40 nM?
Response: No

Prompt: Here's an entry: Cn1cc(-c2cc(F)c(F)c(NC(=O)c3n[nH]c(Cc4ccccc4)n3)c2)cn1 . Is its IC50 below 40 nM?
Response: No

Prompt: Here's an entry: CN1C(=O)C(NC(=O)c2n[nH]c(Cc3ccccc3)n2)CCc2ccc(C#Cc3ccncc3)cc21 (racemic) . Is its IC50 below 40 nM?
Response: No
